Target: Cytochrome P450 2C19 (Homo sapiens)
Test: Cytochrome P450 Family 2 Subfamily C Member 19 (CYP2C19) small molecule antagonists: luciferase reporter qHTS assay (AID 1671197); further: nearly all actives have a fitted effect of over 65% in size
Conditions: P450-Glo CYP2C19 enzyme, luciferin luminescence, 1 h; series mostly up to 115 µM
Records with an inconclusive call do not appear. Active and inactive are the calls of the source. The call rests on the fitted dose curve; in most records, active means well fitted inhibition curve with a large enough effect in the repeat runs; inconclusive means weak or mixed curves; inactive means no such curve, though single readings can be large or run the other way.
Possible outcomes: 1.0 = active, 0.0 = inactive

>>> class_label("C=Cc1ccc(OC(C)=O)cc1")
0.0
>>> class_label("CC(CCc1ccc(O)cc1)NCCc1ccc(O)c(O)c1 (stereo not given)")
0.0
>>> class_label("CCCC(=O)OC(=O)CCC")
0.0
>>> class_label("COc1ccc(C(=O)NCc2ccc(OCCN(C)C)cc2)cc1OC")
0.0
>>> class_label("Cc1cccc2sc(N)nc12")
1.0
>>> class_label("CC(C)Cc1ccc(CC(=O)O)cc1")
0.0
>>> class_label("O=C1c2ccccc2C(=O)c2c(O)ccc(O)c21")
0.0
>>> class_label("Cc1ccc(N(CCO)CCO)cc1")
1.0
>>> class_label("CC(CO)(CO)C(=O)O")
1.0
>>> class_label("CCCCCCCCCCCCCCCC(=O)OCC")
0.0
>>> class_label("CC(=O)OCC(=O)[C@@]1(OC(C)=O)[C@@H](C)C[C@H]2[C@@H]3C[C@H](F)C4=CC(=O)C=C[C@]4(C)[C@@]3(F)[C@@H](O)C[C@@]21C")
0.0
>>> class_label("CC(=O)N[C@@H](Cc1ccc(O)cc1)C(=O)O")
0.0
>>> class_label("O=C(/C=C/c1ccc([N+](=O)[O-])cc1)c1ccccc1")
1.0
>>> class_label("O=C(c1ccccc1)C1CCC1")
0.0
>>> class_label("CCN(CC)c1ccc(C(=C2C=CC(=[N+](CC)CC)C=C2)c2ccc(S(=O)(=O)O)cc2S(=O)(=O)[O-])cc1")
1.0
>>> class_label("C1CCCCC1")
0.0
>>> class_label("CC(C)(O)c1coc(S(=O)(=O)NC(=O)Nc2c3c(cc4c2CCC4)CCC3)c1")
1.0
>>> class_label("CCCCCCOC(=O)CCCCC")
0.0
>>> class_label("CC(=O)Oc1cccc(O)c1")
0.0
>>> class_label("O=C(O)c1cccc(C[C@@H]2COc3ccc(OCc4nc5cc(F)ccc5s4)cc3[C@@H]2O)c1")
0.0
>>> class_label("Cc1cccc(C)c1NC(=O)c1cc(S(N)(=O)=O)c(Cl)cc1O")
0.0
>>> class_label("CCN(CC)C(=O)/C(C#N)=C/c1cc(O)c(O)c([N+](=O)[O-])c1")
0.0
>>> class_label("COc1ccc(-n2nc(C(F)F)cc2-c2ccc(S(C)=O)cc2)cc1 (stereo not given)")
1.0
>>> class_label("CCOC(=O)c1ccc(NC(=O)CN2CCCCC2)cc1")
0.0
>>> class_label("COc1cc(NCc2ccc3nc(N)nc(N)c3c2C)cc(OC)c1OC")
1.0

---

Target: Cytochrome P450 2C9 (Homo sapiens)
Experiment: Cytochrome P450 Family 2 Subfamily C Member 9 (CYP2C9) small molecule antagonists: luciferase reporter qHTS assay (AID 1671198); further: nearly all actives have a fitted effect of over 50% in size
Conditions: P450-Glo CYP2C9 enzyme assay, luciferin luminescence; series mostly up to 115 µM
Records with an inconclusive call do not appear. The source made the active and inactive calls. Calls follow the shape of the dose curve; as a rule, active = well fitted inhibition curve with a large enough effect in the repeat runs; inconclusive = weak or mixed curves; inactive = no such curve, though single readings can be large or run the other way.
Possible outcomes: 1 (yes) for active, 0 (no) for inactive

>>> class_label("Nc1c(Cl)cc(Cl)cc1[N+](=O)[O-]")
"0 (no)"
>>> class_label("CC(=O)OCC(C)C")
"0 (no)"
>>> class_label("CC(C)(C(=O)c1cccnc1)c1cccnc1")
"0 (no)"
>>> class_label("O=C(NS(=O)(=O)/C=C/c1ccccc1)c1ccc(F)cc1Cl")
"1 (yes)"
>>> class_label("CC(=O)c1ccc[nH]1")
"0 (no)"
>>> class_label("CCOC(=O)N1CCC(Nc2ccc(Cl)cc2N)CC1")
"1 (yes)"
>>> class_label("O=S(=O)(Cl)c1c(Cl)cccc1Cl")
"0 (no)"
>>> class_label("O=C(O)CCC(=O)OC[C@@H](NC(=O)C(Cl)Cl)[C@H](O)c1ccc([N+](=O)[O-])cc1")
"0 (no)"
>>> class_label("CCCCCCCCCCCSCC(=O)O")
"1 (yes)"
>>> class_label("Cc1ccc(N(CCO)CCO)cc1")
"1 (yes)"
>>> class_label("O=C(O)/C=C/c1ccc(O)c(O)c1")
"0 (no)"
>>> class_label("CC(C)(O)c1coc(S(=O)(=O)NC(=O)Nc2c3c(cc4c2CCC4)CCC3)c1")
"1 (yes)"
>>> class_label("O=C(c1ccccc1)C1CCC1")
"0 (no)"
>>> class_label("Cc1cc([N+](=O)[O-])ccc1N")
"1 (yes)"
>>> class_label("BrC(Br)C(Br)Br")
"0 (no)"
>>> class_label("CCC(CO)(CO)[N+](=O)[O-]")
"0 (no)"
>>> class_label("CCN(Cc1cccc(S(=O)(=O)O)c1)c1ccc(C(=C2C=CC(=[N+](CC)Cc3cccc(S(=O)(=O)O)c3)C=C2)c2ccc(O)cc2S(=O)(=O)[O-])cc1")
"1 (yes)"
>>> class_label("O=C(c1ccccc1)c1ccc(O)cc1")
"0 (no)"
>>> class_label("CC1CCCC(=O)C1=O (centres undefined)")
"0 (no)"
>>> class_label("O=C(O)CO")
"0 (no)"
>>> class_label("N[C@@H](Cc1cc(I)c(O)c(I)c1)C(=O)O")
"1 (yes)"
>>> class_label("CN1CCCN(C(c2ccccc2)c2ccc(Cl)cc2)CC1 (centres undefined)")
"0 (no)"
>>> class_label("CCCCCCC(O)CCCCCCCCCCC(=O)OC (centres undefined)")
"1 (yes)"
>>> class_label("O=[N+]([O-])C1(Br)COCOC1")
"1 (yes)"
>>> class_label("CSSc1ccoc1C")
"0 (no)"
>>> class_label("O=C1CC[C@@H](C(=O)O)N1")
"0 (no)"
>>> class_label("CCCCCCCC/C=C/C(=O)O")
"0 (no)"
>>> class_label("CC(C)C(=O)OCCOc1ccccc1")
"1 (yes)"
>>> class_label("O=CNNC=O")
"0 (no)"

Hey, just so you know, these numbers are from PubChem BioAssay (Tox21).
